test: Total clearance in Sprague-Dawley rat at 1 mg/kg, iv; format: ADME, organism-based; set-up: dose 1 mg/kg, route intravenous; settings: in vivo
reportedMetric: clearance (mL/min/kg)

>>> reported("Cc1cc2ncc(C(=O)NCC(C)(C)NCC(=O)N3CCC[C@H]3C#N)cn2n1.Cl [ANAGLIPTIN HYDROCHLORIDE]")
33.3

###

assay: Plasma protein binding in dog at 20 ng/ml after 0.5 hrs by LC-MS/MS analysis; type: ADME, cell-free, Canis lupus familiaris; conditions: read-out: PPB (converted)
The following molecules are listed with their measured fraction unbound at 0.5 h, 20 ng/ml values.
reportedMetric: fraction unbound at 0.5 h, 20 ng/ml

>>> reported("Cc1cc2ncc(C(=O)NCC(C)(C)NCC(=O)N3CCC[C@H]3C#N)c(C)n2n1.Cl")
0.775
>>> reported("Cc1cc2ncc(C(=O)NCC(C)(C)NCC(=O)N3CCC[C@H]3C#N)cn2n1.Cl [ANAGLIPTIN HYDROCHLORIDE]")
0.352

Reference source for all entries: ChEMBL document CHEMBL1926646
